target-of-assay: recombinant JAK2 (amino acids 831-1132) (Homo sapiens (Human), UniProt O60674)
Sequence (O60674 831-1132): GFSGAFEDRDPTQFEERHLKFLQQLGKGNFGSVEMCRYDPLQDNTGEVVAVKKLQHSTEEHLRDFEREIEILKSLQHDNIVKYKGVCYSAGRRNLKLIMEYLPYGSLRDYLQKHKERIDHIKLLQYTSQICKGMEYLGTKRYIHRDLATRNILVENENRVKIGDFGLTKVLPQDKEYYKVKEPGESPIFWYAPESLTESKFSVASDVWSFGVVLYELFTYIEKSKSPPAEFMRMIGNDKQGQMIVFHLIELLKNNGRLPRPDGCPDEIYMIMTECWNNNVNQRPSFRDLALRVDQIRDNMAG
experiment: Enzyme inhibition studies, JAK2 (peptide phosphorylation, Caliper LC3000)
condition-description: ATP concentration of the tabulated values not stated (assayed at ATP Km 15 μM and at 5 mM)
quantity-measured: IC50 (µM)
Give just the number in µM; leave the unit off.

Below, 7 compounds whose answers are already recorded.
1) CC[C@H](C(=O)Nc1cccc2c(-c3nc(Nc4cn(C)nc4OC)ncc3C)c[nH]c12)N1CCN(C)CC1    1.95
2) CCN1CCN([C@H](C)C(=O)Nc2cccc3c(-c4nc(Nc5cn(C)nc5OC)ncc4F)c[nH]c23)CC1    6.57
3) COC[C@H](C(=O)Nc1cccc2c(-c3ccnc(Nc4cn(C)nc4OC)n3)c[nH]c12)N1CCN(C)CC1    1.53
4) COC[C@H](C(=O)Nc1cccc2c(-c3nc(Nc4cn(C)nc4C)ncc3F)c[nH]c12)N1CCN(C)CC1    0.322
5) COc1nn(C)cc1Nc1ncc(Br)c(-c2c[nH]c3c(NC(=O)[C@@H](C)N4CCN(C)CC4)cccc23)n1    1.58
6) COc1nn(C)cc1Nc1ncc(F)c(-c2c[nH]c3c(NC(=O)[C@@H](C)N4CCN(C)CC4)cccc23)n1    6.62
7) COc1nn(C)cc1Nc1ncc(C)c(-c2c[nH]c3c(NC(=O)[C@@H](C)N4CCN(C)CC4)cccc23)n1    5.37

Note: attention shifts to another entry.
I'd like to know its IC50. The compound in question is Cc1nn(C)cc1Nc1nccc(-c2c[nH]c3c(NC(=O)[C@@H](C)N4CCN(C)CC4)cccc23)n1
9.26

----------
target-of-assay: recombinant JAK1 (amino acids 866-1154) (Homo sapiens (Human))
Sequence (P23458 866-1154): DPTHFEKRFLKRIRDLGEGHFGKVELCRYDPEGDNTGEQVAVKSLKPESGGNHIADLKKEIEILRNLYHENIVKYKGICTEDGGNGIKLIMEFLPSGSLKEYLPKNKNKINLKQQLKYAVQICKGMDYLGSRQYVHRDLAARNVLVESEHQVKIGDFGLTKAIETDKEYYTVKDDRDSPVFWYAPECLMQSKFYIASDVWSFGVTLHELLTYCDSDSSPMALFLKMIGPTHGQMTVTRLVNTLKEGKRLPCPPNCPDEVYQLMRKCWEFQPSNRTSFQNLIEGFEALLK
experiment: Enzyme inhibition studies, JAK1 (peptide phosphorylation, Caliper LC3000)
condition-description: ATP concentration not given (assayed at ATP Km 55 μM and at 5 mM)
Method: Enzyme inhibition studies were performed using recombinant JAK1 (amino acids 866-1154, Life Technologies, #PV4774, Carlsbad, Calif.), JAK2 (amino acids 831-1132), or JAK3 (amino acids 781-1124) under buffer conditions of 50 mM HEPES pH 7.3, 1 mM DTT, 0.01% Tween® 20, 50 μg/mL BSA, and 10 mM MgCl2. JAK enzyme was expressed as an N-terminal GST fusion in insect cells and purified by glutathione-affinity and size-exclusion chromatographies. […]
quantity-measured: IC50 (nM)
Kindly answer with a numeric value in nM, unit omitted.

1. COc1nn(C)cc1Nc1ncc(C)c(-c2c[nH]c3c(NC(=O)[C@@H](C)N4CCN(C)C[C@H]4C)cccc23)n1    13
2. CC[C@@H](C(=O)Nc1cccc2c(-c3nc(Nc4cn(C)nc4OC)ncc3F)c[nH]c12)N1CCN(C)CC1    296
3. COc1nn(C)cc1Nc1ncc(F)c(-c2c[nH]c3c(NC(=O)[C@@H](C)N4CCN(C)[C@@H](C)C4)cccc23)n1    24

Please turn your attention to the following entry.
Fill in: IC50 of COc1nn(C)cc1Nc1ncc(F)c(-c2c[nH]c3c(NC(=O)[C@H](C)N4CCN(C)C[C@@H]4C)cccc23)n1 is ___
3600

----------
target-of-assay: recombinant JAK2 (amino acids 831-1132) (Homo sapiens (Human), UniProt O60674)
experiment: Enzyme inhibition studies, JAK2 (peptide phosphorylation, Caliper LC3000)
condition-description: ATP concentration of the tabulated values not stated (assayed at ATP Km 15 μM and at 5 mM)
quantity-measured: pIC50
The value called pIC50 is obtained by taking minus log10 of the concentration in mol/L.

1. CC[C@H](C(=O)Nc1cccc2c(-c3ccnc(Nc4cn(C)nc4OC)n3)c[nH]c12)N1CCN(C)CC1    5.16
2. COc1nn(C)cc1Nc1ncc(Cl)c(-c2c[nH]c3c(NC(=O)[C@@H](C)N4CCN(C)CC4)cccc23)n1    5.75

Please examine the following record next.
Could you tell me which pIC50 is on file for COCCN1CCN([C@H](C)C(=O)Nc2cccc3c(-c4nc(Nc5cn(C)nc5OC)ncc4C)c[nH]c23)CC1 ?
4.74
